Source of measurements: ChEMBL document CHEMBL3585336

Molecular target: Amine oxidase [flavin-containing] B (Bos taurus)
Sequence (P56560 whole entry): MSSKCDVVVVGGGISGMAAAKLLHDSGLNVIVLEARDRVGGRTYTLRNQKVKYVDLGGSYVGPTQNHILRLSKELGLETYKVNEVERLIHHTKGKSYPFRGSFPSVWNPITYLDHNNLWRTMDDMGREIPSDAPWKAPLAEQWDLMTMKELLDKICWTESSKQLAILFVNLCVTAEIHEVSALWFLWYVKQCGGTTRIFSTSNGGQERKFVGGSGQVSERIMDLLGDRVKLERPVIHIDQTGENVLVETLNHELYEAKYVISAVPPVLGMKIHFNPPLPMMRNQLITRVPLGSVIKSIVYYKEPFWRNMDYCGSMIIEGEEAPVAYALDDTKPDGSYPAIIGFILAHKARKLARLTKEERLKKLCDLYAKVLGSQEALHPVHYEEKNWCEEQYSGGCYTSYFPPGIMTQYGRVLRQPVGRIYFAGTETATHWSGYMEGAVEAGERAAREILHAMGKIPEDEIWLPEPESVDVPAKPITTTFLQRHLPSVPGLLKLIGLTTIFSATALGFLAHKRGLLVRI
PROPERTY_LABEL: IC50 (µM)
Reply numerically in µM, unit not repeated.

Sure, the documented IC50 for NNC(=O)CCCN1C(=O)c2ccccc2NC1c1ccco1 (stereo unspecified) is 270

// NNC(=O)CCCN1C(=O)c2ccccc2NC1c1ccc2c(c1)OCO2 (stereo unspecified) : IC50 value = 420

// sample NNC(=O)CN1C(=O)c2ccccc2NC1c1ccccc1 (stereo unspecified) , its IC50 was 310

Others:
Documented IC50 of COC(=O)CCCN1C(=O)c2ccccc2NC1c1ccccc1 (stereo unspecified) : 540

# IC50 of COC(=O)CCCCCNC(=O)c1ccccc1/N=C/c1ccccc1 = 540

Form field IC50, entry NNC(=O)CN1C(=O)c2ccccc2NC1c1ccc2c(c1)OCO2 (stereo unspecified) : 83

====

Biological target: Amine oxidase [flavin-containing] A (Bos taurus, UniProt P21398)
Sequence (P21398 whole entry): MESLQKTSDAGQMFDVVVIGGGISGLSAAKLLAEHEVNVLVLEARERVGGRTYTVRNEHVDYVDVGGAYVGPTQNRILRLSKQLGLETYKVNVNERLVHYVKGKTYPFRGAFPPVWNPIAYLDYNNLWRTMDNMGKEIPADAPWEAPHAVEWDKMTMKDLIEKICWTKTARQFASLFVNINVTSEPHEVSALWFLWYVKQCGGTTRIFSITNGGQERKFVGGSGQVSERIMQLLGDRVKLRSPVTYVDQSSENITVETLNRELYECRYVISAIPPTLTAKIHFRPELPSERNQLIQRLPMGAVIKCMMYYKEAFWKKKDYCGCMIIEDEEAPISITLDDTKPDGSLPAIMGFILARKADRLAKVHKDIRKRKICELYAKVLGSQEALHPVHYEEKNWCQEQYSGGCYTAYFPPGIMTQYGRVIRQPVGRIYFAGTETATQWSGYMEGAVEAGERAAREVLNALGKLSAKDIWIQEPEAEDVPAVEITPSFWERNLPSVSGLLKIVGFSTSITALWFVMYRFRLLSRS
Binarize IC50 at 40 nM; below is fulfilled, at or above is not fulfilled.

Consider the following illustrative entries.
[ask] For this compound, is IC50 lower than 40 nM? NNC(=O)CN1C(=O)c2ccccc2NC1c1ccc2c(c1)OCO2 (configuration not stated)
[reply] fulfilled

[ask] Below 40 nM on IC50? Entry COC(=O)CCCCCN1C(=O)c2ccccc2NC1c1ccc(Cl)cc1 (configuration not stated)
[reply] not fulfilled

[ask] For COC(=O)C(C)N1C(=O)c2ccccc2NC1c1ccc2c(c1)OCO2 (configuration not stated) , is the recorded IC50 below the cut-off of 40 nM?
[reply] fulfilled

[ask] Dear colleague, could you confirm whether IC50 of COC(=O)CN1C(=O)c2ccccc2NC1c1ccco1 (configuration not stated) falls below 40 nM? Thanks.
[reply] not fulfilled

[ask] Decide: IC50 of NNC(=O)CN1C(=O)c2ccccc2NC1c1ccccc1 (configuration not stated) strictly below 40 nM?
[reply] fulfilled

More entries:
[ask] Item COC(=O)CN1C(=O)c2ccccc2NC1c1ccc2c(c1)OCO2 (configuration not stated) : IC50 beneath 40 nM, strictly?
[reply] not fulfilled

[ask] Answer whether the compound NNC(=O)CCN1C(=O)c2ccccc2NC1c1ccc(Cl)cc1 (configuration not stated) has IC50 strictly less than 40 nM
[reply] not fulfilled

[ask] Does COC(=O)CCCCCNC(=O)c1ccccc1N have IC50 strictly under 40 nM?
[reply] not fulfilled

[ask] hey, is IC50 for NNC(=O)CCN1C(=O)c2ccccc2NC1c1ccccc1 (configuration not stated) lower than 40 nM or not?
[reply] fulfilled

[ask] Field: below-cutoff. Rule: recorded IC50 strictly less than 40 nM. Subject: NNC(=O)CCCN1C(=O)c2ccccc2NC1c1ccc2c(c1)OCO2 (configuration not stated)
[reply] not fulfilled

[ask] Is it true that IC50 reported for COC(=O)CCN1C(=O)c2ccccc2NC1c1ccccc1 (configuration not stated) is less than 40 nM?
[reply] not fulfilled

====

Biological target: Amine oxidase [flavin-containing] B (Bos taurus, UniProt P56560)
Experiment: Inhibition of bovine brain mitochondria MAO-B using benzylamine substrate after 60 mins by fluorimetric method
Listing of recorded pIC50 by entry.
Remember, pIC50 is on a log scale: it is -log10 of the molar concentration.

Below are worked cases with known answers.
Lab book: pIC50 of NNC(=O)CN1C(=O)c2ccccc2NC1c1ccc(Cl)cc1 (configuration not stated) noted as 3.03

Recorded result, COC(=O)[C@H](C)NC(=O)c1ccccc1N , pIC50: 3.39

So for COC(=O)CCN1C(=O)c2ccccc2NC1c1ccc2c(c1)OCO2 (configuration not stated) , the logged pIC50 turned out to be 3.77

Lookup result for NNC(=O)C(Cc1ccccc1)N1C(=O)c2ccccc2NC1c1ccco1 (configuration not stated) ; measured pIC50: 3.66

Lab book: pIC50 of COC(=O)C(C)N1C(=O)c2ccccc2NC1c1ccco1 (configuration not stated) noted as 4.21

Next:
The measured pIC50 associated with COC(=O)CCCCCN1C(=O)c2ccccc2NC1c1ccc2c(c1)OCO2 (configuration not stated) reads 3.09

// pIC50 lookup, molecule = COC(=O)[C@H](Cc1ccccc1)NC(=O)c1ccccc1N , result: 3.17

====

Target: Amine oxidase [flavin-containing] B (Bos taurus)
Sequence (P56560 whole entry): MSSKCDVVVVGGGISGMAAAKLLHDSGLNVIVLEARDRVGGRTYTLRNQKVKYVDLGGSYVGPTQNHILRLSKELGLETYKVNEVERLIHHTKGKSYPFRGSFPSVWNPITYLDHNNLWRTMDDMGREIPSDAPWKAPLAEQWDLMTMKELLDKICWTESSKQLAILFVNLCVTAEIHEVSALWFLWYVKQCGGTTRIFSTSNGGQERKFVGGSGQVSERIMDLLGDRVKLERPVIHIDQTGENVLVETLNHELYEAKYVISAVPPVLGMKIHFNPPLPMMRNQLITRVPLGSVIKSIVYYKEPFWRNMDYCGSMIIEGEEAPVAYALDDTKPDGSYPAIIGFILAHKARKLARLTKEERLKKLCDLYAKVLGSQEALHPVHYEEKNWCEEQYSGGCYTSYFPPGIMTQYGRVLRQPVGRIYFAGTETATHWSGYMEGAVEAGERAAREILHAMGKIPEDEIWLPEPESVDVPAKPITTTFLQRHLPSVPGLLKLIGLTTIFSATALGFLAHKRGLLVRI
PROPERTY_LABEL: IC50 (µM)
Please respond with the number in µM and leave the unit unwritten.

Item: COc1ccc(C2Nc3ccccc3C(=O)N2CC(=O)NN)cc1 (stereo not drawn) | IC50: 890

# IC50 (molecule: COC(=O)CN1C(=O)c2ccccc2NC1c1ccco1 (stereo not drawn) ) is 380

Record summary for NNC(=O)CCN1C(=O)c2ccccc2NC1c1ccccc1 (stereo not drawn) : reported IC50 = 210

Continuing:
Entry COC(=O)C(C)N1C(=O)c2ccccc2NC1c1ccc2c(c1)OCO2 (stereo not drawn) ; IC50 = 86

GET /value?item= NNC(=O)C(Cc1ccccc1)N1C(=O)c2ccccc2NC1c1ccc(Cl)cc1 (stereo not drawn) &field=IC50 returns 120

Memo: COC(=O)CN1C(=O)c2ccccc2NC1c1ccc2c(c1)OCO2 (stereo not drawn) , reported IC50: 740

Summary for this molecule, NNC(=O)CCCN1C(=O)c2ccccc2NC1c1ccccc1 (stereo not drawn) : IC50 is 370

Per the record, NNC(=O)CCN1C(=O)c2ccccc2NC1c1ccc(Cl)cc1 (stereo not drawn) has IC50 of 420

====

Molecular target: Amine oxidase [flavin-containing] B (Bos taurus, UniProt P56560)
Sequence (P56560 whole entry): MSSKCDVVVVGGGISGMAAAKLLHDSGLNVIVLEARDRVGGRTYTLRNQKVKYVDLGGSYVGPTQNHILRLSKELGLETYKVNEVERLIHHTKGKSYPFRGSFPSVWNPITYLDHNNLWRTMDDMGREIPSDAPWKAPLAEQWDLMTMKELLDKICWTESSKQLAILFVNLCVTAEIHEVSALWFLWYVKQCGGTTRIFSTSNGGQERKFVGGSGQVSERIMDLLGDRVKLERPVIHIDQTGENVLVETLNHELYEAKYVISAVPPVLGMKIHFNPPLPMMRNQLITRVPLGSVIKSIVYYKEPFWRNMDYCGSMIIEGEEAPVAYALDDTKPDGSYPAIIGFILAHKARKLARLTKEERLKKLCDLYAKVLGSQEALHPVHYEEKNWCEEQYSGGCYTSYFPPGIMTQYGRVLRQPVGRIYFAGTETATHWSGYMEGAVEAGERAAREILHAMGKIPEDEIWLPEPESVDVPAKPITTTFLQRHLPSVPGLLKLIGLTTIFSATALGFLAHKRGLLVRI
Assay: Inhibition of bovine brain mitochondria MAO-B using benzylamine substrate after 60 mins by fluorimetric method
Reported pIC50 values for the following compounds.
FYI, pIC50 means -log10 of a concentration in mol per litre.

GET /value?item= COC(=O)C(C)N1C(=O)c2ccccc2NC1c1ccccc1 (stereo not drawn) &field=pIC50 returns 3.34

---
Lookup result for NNC(=O)CCN1C(=O)c2ccccc2NC1c1ccc2c(c1)OCO2 (stereo not drawn) ; measured pIC50: 3.42

# pIC50 of COC(=O)C(Cc1ccccc1)N1C(=O)c2ccccc2NC1c1ccc(Cl)cc1 (stereo not drawn) = 3.27
